Origin of values: patent US20170355757A1

- Tested target: T1, monkey C5-mmh (monkey, UniProt P01031 19-1676 (human entry), limits assumed)
- T1 construct: Recombinant monkey C5 with a C-terminal myc-myc-hexahistidine tag
- T1 chain: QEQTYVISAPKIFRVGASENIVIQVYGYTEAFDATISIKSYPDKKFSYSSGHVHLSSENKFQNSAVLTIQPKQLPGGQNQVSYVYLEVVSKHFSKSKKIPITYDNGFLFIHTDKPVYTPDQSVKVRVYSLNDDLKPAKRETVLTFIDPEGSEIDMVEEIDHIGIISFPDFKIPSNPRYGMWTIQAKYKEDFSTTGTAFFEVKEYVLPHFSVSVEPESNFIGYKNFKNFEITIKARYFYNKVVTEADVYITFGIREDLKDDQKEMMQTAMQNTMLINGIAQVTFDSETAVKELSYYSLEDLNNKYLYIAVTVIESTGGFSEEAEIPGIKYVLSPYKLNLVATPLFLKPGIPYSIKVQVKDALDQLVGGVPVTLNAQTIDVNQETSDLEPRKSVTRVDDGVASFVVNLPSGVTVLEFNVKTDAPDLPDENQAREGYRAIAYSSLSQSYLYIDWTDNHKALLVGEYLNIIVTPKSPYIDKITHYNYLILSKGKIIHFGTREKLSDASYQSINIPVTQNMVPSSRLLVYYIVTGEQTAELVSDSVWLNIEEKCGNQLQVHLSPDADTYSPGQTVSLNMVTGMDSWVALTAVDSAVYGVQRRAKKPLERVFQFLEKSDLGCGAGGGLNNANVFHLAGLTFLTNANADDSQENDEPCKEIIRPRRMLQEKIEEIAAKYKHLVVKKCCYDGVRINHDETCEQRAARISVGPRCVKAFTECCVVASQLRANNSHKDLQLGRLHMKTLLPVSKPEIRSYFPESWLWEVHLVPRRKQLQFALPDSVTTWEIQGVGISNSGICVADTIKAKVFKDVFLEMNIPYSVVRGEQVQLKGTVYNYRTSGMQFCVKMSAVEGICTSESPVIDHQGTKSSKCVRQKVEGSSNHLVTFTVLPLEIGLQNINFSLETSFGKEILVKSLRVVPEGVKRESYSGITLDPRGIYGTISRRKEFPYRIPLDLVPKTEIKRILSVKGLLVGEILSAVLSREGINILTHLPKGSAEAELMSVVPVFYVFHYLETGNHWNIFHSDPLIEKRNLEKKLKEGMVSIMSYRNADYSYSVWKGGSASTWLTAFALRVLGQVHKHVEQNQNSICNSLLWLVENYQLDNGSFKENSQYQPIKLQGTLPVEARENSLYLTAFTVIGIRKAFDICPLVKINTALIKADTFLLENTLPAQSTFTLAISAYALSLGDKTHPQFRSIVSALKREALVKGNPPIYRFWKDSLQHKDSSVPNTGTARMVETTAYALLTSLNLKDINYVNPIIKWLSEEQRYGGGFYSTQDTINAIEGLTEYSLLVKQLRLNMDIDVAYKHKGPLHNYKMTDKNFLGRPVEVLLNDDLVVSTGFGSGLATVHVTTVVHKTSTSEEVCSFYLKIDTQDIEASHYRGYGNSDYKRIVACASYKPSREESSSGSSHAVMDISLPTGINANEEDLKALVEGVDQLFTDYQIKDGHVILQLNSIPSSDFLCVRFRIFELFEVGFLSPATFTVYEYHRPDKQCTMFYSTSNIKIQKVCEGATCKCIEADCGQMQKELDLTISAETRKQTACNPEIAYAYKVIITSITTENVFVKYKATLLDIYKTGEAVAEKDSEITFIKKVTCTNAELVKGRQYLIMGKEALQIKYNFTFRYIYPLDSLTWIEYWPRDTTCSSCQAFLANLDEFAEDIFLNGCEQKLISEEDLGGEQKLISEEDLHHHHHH
- Method summary: SPR, mAb captured via anti-hFc, 37C
Readout label: t1/2
Answer shape: numeric part, then the unit.

Completed entries (count: 8):
- H4H12166P9 (antibody, human IgG4, V domains shown, Histidine-mutated CDR variant of H4H12166P; human IgG4 Fc with S108P) VH: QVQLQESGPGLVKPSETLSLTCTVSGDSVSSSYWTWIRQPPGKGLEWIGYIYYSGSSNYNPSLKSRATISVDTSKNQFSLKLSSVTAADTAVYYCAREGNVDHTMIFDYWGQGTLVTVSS VL: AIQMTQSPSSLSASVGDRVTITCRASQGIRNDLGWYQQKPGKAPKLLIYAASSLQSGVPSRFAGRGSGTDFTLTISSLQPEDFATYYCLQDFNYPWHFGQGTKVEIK: 4 min
- H4H12163P (antibody, human IgG4, V domains shown, Human IgG4 Fc with S108P hinge mutation (H4H)) VH: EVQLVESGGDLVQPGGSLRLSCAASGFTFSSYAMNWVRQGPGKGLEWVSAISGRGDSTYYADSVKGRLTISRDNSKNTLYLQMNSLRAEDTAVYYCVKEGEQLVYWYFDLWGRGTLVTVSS VL: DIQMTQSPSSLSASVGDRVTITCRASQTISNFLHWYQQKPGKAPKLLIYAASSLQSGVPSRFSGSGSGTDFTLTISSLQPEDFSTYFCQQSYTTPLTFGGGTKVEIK: 9 min
- H4H12161P (antibody, human IgG4, V domains shown, Human IgG4 Fc with S108P hinge mutation (H4H)) VH: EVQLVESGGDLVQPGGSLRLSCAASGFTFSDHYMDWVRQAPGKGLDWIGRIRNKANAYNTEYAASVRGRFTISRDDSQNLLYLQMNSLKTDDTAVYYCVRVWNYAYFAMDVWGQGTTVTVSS VL: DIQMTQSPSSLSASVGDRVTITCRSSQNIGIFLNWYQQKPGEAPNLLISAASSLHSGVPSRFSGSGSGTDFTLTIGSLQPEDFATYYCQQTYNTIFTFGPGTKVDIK: 16 min
- H4H12175P (antibody, human IgG4, V domains shown, Human IgG4 Fc with S108P hinge mutation (H4H)) VH: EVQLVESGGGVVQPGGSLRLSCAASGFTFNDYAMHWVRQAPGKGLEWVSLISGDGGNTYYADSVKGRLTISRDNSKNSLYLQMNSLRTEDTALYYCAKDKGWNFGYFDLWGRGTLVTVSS VL: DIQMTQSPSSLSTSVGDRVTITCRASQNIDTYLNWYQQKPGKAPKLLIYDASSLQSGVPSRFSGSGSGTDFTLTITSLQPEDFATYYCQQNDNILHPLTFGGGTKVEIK: 4 min
- H4H12168P (antibody, human IgG4, V domains shown, Human IgG4 Fc with S108P hinge mutation (H4H)) VH: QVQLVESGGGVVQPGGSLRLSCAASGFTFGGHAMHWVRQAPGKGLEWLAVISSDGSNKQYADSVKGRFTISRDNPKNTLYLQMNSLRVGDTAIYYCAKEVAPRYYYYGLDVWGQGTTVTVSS VL: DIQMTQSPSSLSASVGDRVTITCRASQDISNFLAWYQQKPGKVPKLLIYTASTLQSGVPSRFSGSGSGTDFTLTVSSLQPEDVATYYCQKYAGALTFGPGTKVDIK: 17 min
- H4H12166P10 (antibody, human IgG4, V domains shown, Histidine-mutated CDR variant of H4H12166P; human IgG4 Fc with S108P) VH: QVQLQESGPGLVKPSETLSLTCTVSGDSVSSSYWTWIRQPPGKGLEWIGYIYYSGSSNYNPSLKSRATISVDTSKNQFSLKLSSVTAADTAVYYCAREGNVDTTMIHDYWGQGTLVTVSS VL: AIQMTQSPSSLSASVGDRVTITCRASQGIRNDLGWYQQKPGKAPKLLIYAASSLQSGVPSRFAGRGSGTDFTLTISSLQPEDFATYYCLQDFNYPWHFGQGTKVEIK: 4 min
- H4H12166P6 (antibody, human IgG4, V domains shown, Histidine-mutated CDR variant of H4H12166P; human IgG4 Fc with S108P) VH: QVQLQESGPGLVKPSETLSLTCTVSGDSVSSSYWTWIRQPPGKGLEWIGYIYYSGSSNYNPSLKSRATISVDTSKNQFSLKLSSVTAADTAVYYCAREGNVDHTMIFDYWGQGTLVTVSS VL: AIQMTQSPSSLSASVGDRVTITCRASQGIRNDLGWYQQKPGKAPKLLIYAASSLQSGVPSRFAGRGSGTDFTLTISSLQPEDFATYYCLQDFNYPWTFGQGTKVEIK: 5 min
- H4H12169P (antibody, human IgG4, V domains shown, Human IgG4 Fc with S108P hinge mutation (H4H)) VH: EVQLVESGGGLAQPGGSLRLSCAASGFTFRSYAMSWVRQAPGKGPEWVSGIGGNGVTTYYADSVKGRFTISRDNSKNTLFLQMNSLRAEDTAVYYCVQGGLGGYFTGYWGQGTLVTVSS VL: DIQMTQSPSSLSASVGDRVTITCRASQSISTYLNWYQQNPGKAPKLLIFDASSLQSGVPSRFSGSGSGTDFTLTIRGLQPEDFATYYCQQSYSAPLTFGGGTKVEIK: 3 min

Hi! Can you tell me t1/2 for each of these binders?
1. H4H11686N (antibody, V domains shown, also called H2M11686N) VH: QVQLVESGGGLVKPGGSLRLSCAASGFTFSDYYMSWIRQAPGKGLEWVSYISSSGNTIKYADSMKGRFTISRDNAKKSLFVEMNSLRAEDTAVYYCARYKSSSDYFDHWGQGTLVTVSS VL: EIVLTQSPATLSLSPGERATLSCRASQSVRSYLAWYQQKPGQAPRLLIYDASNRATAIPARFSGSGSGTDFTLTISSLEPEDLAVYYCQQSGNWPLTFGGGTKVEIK
2. H4H12171P (antibody, human IgG4, V domains shown, Human IgG4 Fc with S108P hinge mutation (H4H)) VH: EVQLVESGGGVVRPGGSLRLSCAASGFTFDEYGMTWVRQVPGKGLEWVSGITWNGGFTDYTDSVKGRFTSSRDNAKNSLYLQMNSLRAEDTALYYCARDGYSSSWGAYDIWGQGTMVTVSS VL: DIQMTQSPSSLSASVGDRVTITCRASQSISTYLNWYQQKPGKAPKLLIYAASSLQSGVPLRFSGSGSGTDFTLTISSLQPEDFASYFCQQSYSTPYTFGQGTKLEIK

["6 min", "11 min"]
